Each entry below carries its reported Ki.
- experimental.system: 5HT6-human recombinant receptor (Homo sapiens, UniProt P50406)
- Sequence (P50406 whole entry): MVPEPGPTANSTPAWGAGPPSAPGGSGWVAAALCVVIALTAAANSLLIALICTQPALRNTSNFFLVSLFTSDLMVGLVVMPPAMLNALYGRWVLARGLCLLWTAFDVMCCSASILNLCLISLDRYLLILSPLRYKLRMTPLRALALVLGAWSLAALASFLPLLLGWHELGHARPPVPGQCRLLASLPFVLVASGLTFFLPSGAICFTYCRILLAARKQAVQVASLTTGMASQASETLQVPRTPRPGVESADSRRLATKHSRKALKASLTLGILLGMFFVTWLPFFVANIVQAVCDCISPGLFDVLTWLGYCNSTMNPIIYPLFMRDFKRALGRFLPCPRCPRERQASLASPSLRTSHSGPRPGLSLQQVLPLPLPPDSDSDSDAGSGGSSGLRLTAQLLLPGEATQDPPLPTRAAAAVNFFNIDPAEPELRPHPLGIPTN
- assay.summary: Binding to serotonin receptor 5-HT6 ([3H]-LSD displacement)
- experimental.context: membranes of HEK-293 cells expressing the receptor; radioligand [3H]-LSD 2.7 nM; 60 minutes at 37° C.
endpoint: Ki (nM)

structure.smiles.string | endpoint | numeric.readout
COc1ccc(N2CCN(C)CC2)cc1NCc1ccccc1 | Ki | 409
CN1CCN(c2ccc(NS(=O)(=O)c3ccccc3)c(NCc3ccccc3)c2)CC1 | Ki | 60.2
CN1CCN(c2ccc(C#N)c(NCc3ccccc3)c2)CC1 | Ki | 108
CN1CCN(c2ccc(OCc3ccccc3)c(NCCc3ccccc3)c2)CC1 | Ki | 1280
COC(=O)c1ccc(N2CCN(C)CC2)cc1NCCc1ccccc1 | Ki | 462
CC(=O)N(Cc1ccccc1)c1ccc(N2CCN(C)CC2)cc1N | Ki | 164
CN1CCN(c2ccc(OCc3ccccc3)c(NCc3ccco3)c2)CC1 | Ki | 402

All values here come from patent US20090042904A1.
